MAT2A (Homo sapiens, UniProt P31153) measurements of pIC50, listed per entry.
Sequence (P31153 whole entry, species assumed): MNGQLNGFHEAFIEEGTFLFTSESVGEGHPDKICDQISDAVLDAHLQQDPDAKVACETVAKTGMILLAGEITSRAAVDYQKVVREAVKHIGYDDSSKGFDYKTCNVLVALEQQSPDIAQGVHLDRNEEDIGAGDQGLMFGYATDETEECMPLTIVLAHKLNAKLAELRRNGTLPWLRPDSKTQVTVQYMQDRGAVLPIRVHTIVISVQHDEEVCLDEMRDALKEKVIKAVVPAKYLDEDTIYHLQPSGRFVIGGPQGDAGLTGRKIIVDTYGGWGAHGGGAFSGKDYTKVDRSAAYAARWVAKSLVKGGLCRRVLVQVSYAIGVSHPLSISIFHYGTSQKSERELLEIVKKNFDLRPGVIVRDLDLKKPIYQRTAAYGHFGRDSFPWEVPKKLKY
pIC50: −log10 of the molar value.

Solved cases (2 shown):
compound	readout	result
C#CCNc1nc(=O)n(-c2cnn(C)c2)c2cc(C(F)(F)F)ccc12 [Example 72]	pIC50	6.30 to 7.00
C#CCNc1nc(=O)n(-c2cc(C)cnc2C)c2cc(C(F)(F)F)ccc12 [Example 44]	pIC50	6.30 to 7.00

// pIC50 lookup, key: C#CCNc1nc(=O)n(-c2cnccn2)c2cc(C(F)(F)F)cc(F)c12 [Example 32]
7.00 to 7.30
